System: Malme-3M
Assay: NCI tumour cell line growth inhibition, 48 h
Activity calls are given as the source filed them. Cut-off read from the data, not from the text of the source: active = GI50 up to about 1.1 µM and inactive = higher.
readoutType: GI50

>>> print(df.to_string())
                                   molecule        recordedresult
0  COc1ccc(P2(=S)Oc3ccc(C(c4ccccc4)(c4ccccc4)c4ccccc4)cc3O2)cc1 (centres undefined)      20 µM (inactive)
1  CCOC(=O)c1c(N)n(-c2ccccc2)c(=O)n(-c2ccccc2)c1=O   > 100 µM (inactive)
2  CCCC(=O)OC[n+]1cccc(-c2c(COC(=O)NC(C)C)c(COC(=O)NC(C)C)c3n2CCC3)c1    66.5 µM (inactive)
3  Cc1ccc(C2CC(=O)CC(c3ccc(C)cc3)C23C(=O)NC(=O)NC3=O)cc1 (centres undefined)   > 100 µM (inactive)
4            C=C(Br)CNC(=O)CCC(=O)NCC(=C)Br   > 100 µM (inactive)
5  C[N+](C)(C)CC(=O)N/N=C(/Cc1nc2ccc([N+](=O)[O-])cc2nc1O)C(=O)Nc1cc(C(F)(F)F)ccc1Cl   > 100 µM (inactive)
6  CCCCCCCCCCCCCCCCCCCCCC(=O)Nc1ccn(C2OC(CO)C(O)C2O)c(=O)n1 (centres undefined)  > 42.4 µM (inactive)
7                   O=C(Nc1ccccc1)N1CCNC1=S   > 100 µM (inactive)
8  CCCCCCCCCCCCCC[C@@H](O)[C@H]1CC[C@H]([C@H]2CC[C@H]([C@H](O)CCCCCC[C@@H](O)CC3=C[C@H](C)OC3=O)O2)O1    > 25 µM (inactive)

###

Test system: NCI-H460
Test: NCI tumour cell line growth inhibition, 48 h
Active and inactive are the calls of the source. Cut-off read from the data, not from the text of the source: active = GI50 up to about 1.1 µM and inactive = higher.
Labels: YES = active, NO = inactive

compound	label
O=[N+]([O-])c1cccc2nnccc12	NO
CN(/N=C/c1ccccn1)C1=NCCCCN1	NO
COc1ccc(C2=C(N)c3ccccc3C2=O)cc1	NO
C/C(=C1/N=C(c2cc([N+](=O)[O-])ccc2Cl)N(c2ccc(Br)cc2)C1=O)c1ccc(N(CCC#N)CCC#N)cc1C	NO
COc1cc(CNc2nc3ccccc3nc2-c2cccs2)cc(OC)c1OC	NO
COC(=O)Cc1cc2c(cc1C(=O)c1ccc(N)cc1)OCO2	NO
COC(C/C(=C/CO[Si](C(C)C)(C(C)C)C(C)C)C(=O)Nc1ccccc1I)OC	NO
CON(C(=O)OC(C)(C)C)c1ccccc1	NO
COc1cc2c(cc1OCCCCOc1cc3nc(C)nc(Cl)c3cc1OC)N=C[C@@H]1CCCN1C2=O	NO
COc1cc2c(cc1OC(=O)CC(C)O)C1C(OC2=O)C(OC(C)=O)C=C2CCN(C)[C@H]21 (stereo not given in full)	NO
CC(=O)OCCCCN1C(=O)CSc2ccccc21	NO
Nc1ccc(S(=O)(=O)c2ccc(/N=[N+](\[O-])c3ccc(S(=O)(=O)c4ccc(N)cc4)cc3)cc2)cc1	NO
O=C1c2cc3c(cc2NC(c2ccccc2F)C1O)OCO3 (stereo not given)	NO
CC1CCC2(OC1)OC1CC3C4CC=C5CC(OC6OC(CO)C(OC7OC(C)C(OC8OC(C)C(O)C(O)C8O)C(O)C7O)C(O)C6OC6OC(C)C(O)C(O)C6O)CCC5(C)C4CCC3(C)C1C2C (stereo not given)	NO
COc1ccc(/C=C2/C(C)=NN(c3cccc(Cl)c3)/C2=N/c2nc3ccccc3s2)cc1	NO
CCOc1ccc(/N=N/C2C(=O)N(C(=O)CC(=O)Nc3ccccc3OC)N=C2C)cc1 (stereo not given)	NO
CCc1nc(N)nc(N)c1-c1ccc2nn(-c3ccccc3)[n+]([O-])c2c1	YES
NNC(=O)C(=O)N/N=C1\CCC(=O)CC1C(=O)CCC(=O)Nc1ccc(Cl)cc1 (stereo not given)	NO
CO[C@H](c1ccccc1)[C@H](C)N(C)c1ccc2ccccc2c1C1=NC(C)(C)CO1	NO
CN1c2ccccc2C(=O)NC12CCNCC2	NO
